System: Rattus norvegicus
PROTOCOL: Inhibition of histamine stimulated gastric acid secretion in lumen perfused anaesthetized rats after 1 mg/kg intravenous dose
Format: functional
EXPERIMENTAL CONTEXT: Stomach
Mark not satisfied for inhibition in vivo at 1 mg/kg values under 60%, and satisfied for everything at or above.

# COMPOUND, CLASS ASSIGNMENT
records = [
    ("CC(C)C(=O)NCc1cccc(-c2csc(N=C(N)N)n2)n1", "not satisfied"),
    ("N=C(N)Nc1nc(-c2cccc(CNC(=O)C3CC3)n2)cs1", "satisfied"),
    ("N=C(N)Nc1nc(-c2cccc(CNC=O)n2)cs1", "satisfied"),
    ("N=C(N)Nc1nc(-c2cccc(CNC(=O)C3CCC(=O)CC3)n2)cs1", "not satisfied"),
    ("CC(C)(C)C(=O)NCc1cccc(-c2csc(N=C(N)N)n2)n1", "not satisfied"),
]

Say whether CN/C(=C\[N+](=O)[O-])NCc1cccc(-c2csc(N=C(N)N)n2)n1 shows inhibition in vivo at 1 mg/kg of 60% or more.
not satisfied

Is inhibition in vivo at 1 mg/kg for NC(N)=Nc1nc(CSCC/C(N)=N/S(N)(=O)=O)cs1 [FAMOTIDINE] at or above 60%?
satisfied

Textbook exercise: given the entry CN/C(=N\CCSCc1nc[nH]c1C)NC#N [CIMETIDINE] , state whether its inhibition in vivo at 1 mg/kg is greater than or equal to 60%.
not satisfied

Decide: inhibition in vivo at 1 mg/kg of CCNC(=O)NCc1cccc(-c2csc(N=C(N)N)n2)n1 >= 60%?
satisfied

Is inhibition in vivo at 1 mg/kg at least 60%? Consider CSCC(=O)NCc1cccc(-c2csc(N=C(N)N)n2)n1
not satisfied

====

Consider the following compounds and their measured pIC50 readings.
TARGET SYSTEM: Histamine H2 receptor (Cavia porcellus)
Sequence (P47747 whole entry): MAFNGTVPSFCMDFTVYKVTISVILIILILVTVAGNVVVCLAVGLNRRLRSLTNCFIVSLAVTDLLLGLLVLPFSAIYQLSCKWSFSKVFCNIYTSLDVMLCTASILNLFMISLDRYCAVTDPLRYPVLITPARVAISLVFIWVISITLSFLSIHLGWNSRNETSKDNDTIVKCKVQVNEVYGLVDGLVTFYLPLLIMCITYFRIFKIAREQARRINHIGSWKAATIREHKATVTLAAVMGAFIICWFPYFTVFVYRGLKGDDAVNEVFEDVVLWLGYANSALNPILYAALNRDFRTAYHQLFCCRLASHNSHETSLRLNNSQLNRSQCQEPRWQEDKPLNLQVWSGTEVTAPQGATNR
PROTOCOL: Compound was tested for H2 receptor antagonistic activity against histamine stimulated chronotropic response in isolated guinea pig right atrium
Just so you know, pIC50 here is -log10 of the concentration in molar units; reply with that number alone.

# COMPOUND, REPORTED RESULT
data = [
    ("CC(=O)NCc1cccc(-c2csc(N=C(N)N)n2)n1.Cl", 5.89),
]

Give pIC50 for NC(N)=Nc1nc(CSCCC(N)=NS(N)(=O)=O)cs1 [FAMOTIDINE] tested on Histamine H2 receptor (Cavia porcellus).
6.52

Give pIC50 for this entry on Histamine H2 receptor (Cavia porcellus): CNC(=C[N+](=O)[O-])NCCSCc1ccc(CN(C)C)o1 [RANITIDINE]
5.47

====

Tested on: Rattus norvegicus
PROTOCOL: Inhibition of histamine stimulated gastric acid secretion in lumen perfused anaesthetized rats after 1 mg/kg intravenous dose
Format: functional
EXPERIMENTAL CONTEXT: Stomach
Could you label it Met if measured inhibition in vivo at 1 mg/kg is 40% or higher, and Not met otherwise?

Use these answered entries as a reference point.
# COMPOUND, CLASS ASSIGNMENT
rows = [
    ("CCCNC(=O)NCc1cccc(-c2csc(N=C(N)N)n2)n1", "Met"),
    ("CCCC(=O)NCc1cccc(-c2csc(N=C(N)N)n2)n1", "Met"),
    ("N=C(N)Nc1nc(-c2cccc(CNC(=O)CSCc3ccco3)n2)cs1", "Not met"),
    ("N=C(N)Nc1nc(-c2cccc(CNC(=O)C(F)(F)F)n2)cs1", "Met"),
    ("CC(=O)NCCc1cccc(-c2csc(N=C(N)N)n2)n1", "Met"),
]

State whether the measured inhibition in vivo at 1 mg/kg reaches 40%, counting equality as reaching it, for CS(=O)(=O)NCc1cccc(-c2csc(N=C(N)N)n2)n1
Met

API: above_or_equal(metric=inhibition in vivo at 1 mg/kg, cutoff=40%) for item C/N=C(\NC#N)NCc1cccc(-c2csc(N=C(N)N)n2)n1
Not met

Quick check: does CC(=O)Nc1cccc(-c2csc(N=C(N)N)n2)n1 have inhibition in vivo at 1 mg/kg greater than or equal to 40%?
Not met

Check this compound for inhibition in vivo at 1 mg/kg at or above 40%: CC(=O)OCC(=O)NCCCOc1cccc(CN2CCCCC2)c1 [ROXATIDINE ACETATE]
Met

Reported inhibition in vivo at 1 mg/kg at or above 40%? N=C(N)Nc1nc(-c2cccc(CC(=N)NS(N)(=O)=O)n2)cs1
Met

====

Entries annotated with measured inhibition in vivo at 1 mg/kg
System: Rattus norvegicus
PROTOCOL: Inhibition of histamine stimulated gastric acid secretion in lumen perfused anaesthetized rats after 1 mg/kg intravenous dose
Type: functional
EXPERIMENTAL CONTEXT: Stomach
Numbers only; they are read as %.

As a guide, the following entries are already answered.
# COMPOUND, inhibition in vivo at 1 mg/kg / %
records = [
    ("CC(=O)NCc1cncc(-c2csc(N=C(N)N)n2)c1", 10),
    ("CNC(=O)NCc1cccc(-c2csc(N=C(N)N)n2)n1", 79),
]

Complete the entry with inhibition in vivo at 1 mg/kg for N=C(N)Nc1nc(-c2cccc(CNC(=O)C3CCCC3)n2)cs1
67

Provide only the value of recorded inhibition in vivo at 1 mg/kg for N=C(N)Nc1nc(-c2ccc(CC(=N)NS(N)(=O)=O)o2)cs1
99

Return inhibition in vivo at 1 mg/kg for the following compound: CC(=O)NCc1cccc(-c2csc(N=C(N)N)n2)n1.Cl
82

State, in one line, measured inhibition in vivo at 1 mg/kg of C/N=C(/NCc1cccc(-c2csc(N=C(N)N)n2)n1)NS(C)(=O)=O
24

====

# Lookup of reported inhibition in vivo at 1 mg/kg keyed by entry
Tested on: Rattus norvegicus
PROTOCOL: Inhibition of histamine stimulated gastric acid secretion in lumen perfused anaesthetized rats after 1 mg/kg intravenous dose
Format: functional
EXPERIMENTAL CONTEXT: Stomach
Record the value in %, omitting the unit from your answer.

Examples with answers:
# MOLECULE, inhibition in vivo at 1 mg/kg (%)
rows = [
    ("CCS(=O)(=O)N/C=N\\Cc1cccc(-c2csc(N=C(N)N)n2)n1", -18),
    ("N=C(N)Nc1nc(-c2cccc(CNC(=O)C3CCCCCC3)n2)cs1", 43),
    ("N=C(N)Nc1nc(-c2cccc(CNC(=O)C3CCCO3)n2)cs1 (stereo not given)", 6),
]

Supply measured inhibition in vivo at 1 mg/kg of N=C(N)Nc1nc(-c2cccc(CNC(=O)C3CCOC3)n2)cs1 (stereo not given) in your reply.
51

Look up inhibition in vivo at 1 mg/kg of N=C(N)Nc1nc(-c2cccc(CNC(=O)C3CCCCC3)n2)cs1 and report it.
23

Every entry's value here was drawn from ChEMBL document CHEMBL1127497.
